Tested on: NF-κB activated by IL1β (IL1RI signaling), HEK-Blue IL1β cells
protocol notes: IL1RI signaling assay, HEK-Blue IL1β reporter cells (NF-κB/SEAP)
Type: cell-based
reported conditions: IL1β 1.2 μM
No end group written: not given here.
property label: inhibition of NF-κB activation induced by IL1β

>>> test_result("SGRKSSKMQA (also: tetrameric dendrimer; listed as Homo sapiens) [Ilantafin-d]")
"inhibitory effect"
>>> test_result("SGRKSSKMQA-OH [Ilantafin-m]")
"inhibitory effect"

====

protocol notes: Peptide solubility on reconstitution
Format: physicochemical
reported conditions: water
No end group written: not given here.
property label: solubility in water

>>> test_result("NQLVAGYLQGPNVN-OH [Ilantafin-3]")
"not soluble in water"
>>> test_result("AGYLQGPNVN-OH [Ilantafin-2]")
"soluble in water"
>>> test_result("VTKFYFQED-OH [Ilantafin-4, VTKFYFQED]")
"not soluble in water"
>>> test_result("NQKTFYLRNNQL-OH [Ilantafin-6]")
"soluble in water"
